Experiment: Solubility measurement in various solvents at 50° C. (Procedure 2)
Type: physicochemical
Conditions: methanol, organic solvent or mixture, thermodynamic from solid
reportedEndpoint: solubility (mg/mL)
Quick reminder: number only, in mg/mL, skip the unit.

Record "Cl.Cl.Cn1c(C(=O)Nc2cccc(-c3cccc(NC(=O)c4nc5c(n4C)CCN(CCC46CCC(C(=O)O)(CC4)C6)C5)c3Cl)c2Cl)nc2c1CCN(CCC13CCC(C(=O)O)(CC1)C3)C2" . Reported solubility: 22.1

* * *

Assay: Solubility measurement in various solvents at 50° C. (Procedure 2)
Type: physicochemical
Conditions: THF, organic solvent or mixture, thermodynamic from solid
Description: The solubility of Compound 1 Di-Hydrochloric Acid Salt Form I was measured according to Procedure 1 for solubility in 25° C. (Table 5) and Procedure 2 for 50° C. [table] [table]
reportedEndpoint: solubility (mg/mL)
Quick reminder: number only, in mg/mL, skip the unit.

Record "Cl.Cl.Cn1c(C(=O)Nc2cccc(-c3cccc(NC(=O)c4nc5c(n4C)CCN(CCC46CCC(C(=O)O)(CC4)C6)C5)c3Cl)c2Cl)nc2c1CCN(CCC13CCC(C(=O)O)(CC1)C3)C2" . Reported solubility: 0.04
